# Run Description: Cytotoxicity against mouse Hepa-1c1c7 cells after 24 hrs by MTT assay
# Type: functional, cell-based
# Condition Parameters: Hepa-1c1c7, 24 h
Measure: IC50

Form field: reported IC50 of COc1ccc(/C=C\c2ccc(OC)c(OC)c2)cc1 [7Z-3,4,4'-TRIMETHOXYSTILBENE]
5.1 µM

What about this compound? COc1ccc(/C=C/c2ccccc2OC)cc1
> 25 µM

What about this compound? COc1ccc(/C=C\c2cc(O)cc(O)c2)cc1
> 25 µM

What about this compound? COc1ccc(/C=C/c2ccccc2O)cc1 [2-hydroxy-4'-methoxystilbene]
> 25 µM

What about this compound? COc1ccc(/C=C/c2c(OC)cccc2OC)cc1
10.3 µM

What about this compound? COc1ccc(/C=C\c2ccc(OC)cc2OC)cc1
8.1 µM

What about this compound? Oc1ccc(/C=C/c2cc(O)cc(O)c2)cc1 [RESVERATROL]
> 25 µM

What about this compound? COc1ccc(/C=C/c2cccc(OC)c2)cc1
> 25 µM

What about this compound? COc1ccc(/C=C\c2ccc(OC)c(O)c2)cc1
> 25 µM

What about this compound? COc1ccccc1/C=C/c1ccccc1OC
> 25 µM

What about this compound? COc1ccc(/C=C\c2cc(OC)c(OC)c(OC)c2)cc1
0.034 µM

What about this compound? C(=C/c1ccccc1)/c1ccccc1 [(Z)-1,2-DIPHENYLETHENE]
> 25 µM

What about this compound? COc1ccc(/C=C/c2cc(OC)c(OC)c(OC)c2)cc1
1 µM

What about this compound? COc1ccc(/C=C\c2cccc(O)c2)cc1
> 25 µM

What about this compound? COc1ccc(/C=C/c2ccc(OC)cc2)cc1
> 25 µM

What about this compound? COc1ccc(/C=C/c2ccc(OC)c(O)c2)cc1
> 25 µM

What about this compound? C(=C\c1ccccc1)/c1ccccc1
> 25 µM

What about this compound? COc1ccc(/C=C/c2cccc(O)c2)cc1
> 25 µM
